Form: system (human POLγ 3′-5′ exonuclease activity (Homo sapiens, UniProt P54098)), quantity (pIC50), values below.
Note on pIC50: it is the negative log10 of concentration, concentration in mol/L.

> print(dat)
                                chem.smiles  recorded.measurement
1  Cc1cc(S(=O)(=O)Nc2cccc(C(=O)N3CCC[C@H]3C)c2)c(C)cc1Cl                  6.10
2  Cc1cc(S(=O)(=O)Nc2cccc(C(=O)N(C)C)c2)c(C)cc1Cl                  5.30
3  Cc1ccc(C)c(S(=O)(=O)Nc2cccc(C(=O)N3CCCC[C@H]3C)c2)c1                  5.52

Below: the item to evaluate.
Query pIC50 on human POLγ 3′-5′ exonuclease activity (Homo sapiens, UniProt P54098) for `Cc1cc(S(=O)(=O)Nc2cccc(-c3nc(C4CC4)cn3C)c2)c(C)cc1Cl`
Sequence (P54098 whole entry): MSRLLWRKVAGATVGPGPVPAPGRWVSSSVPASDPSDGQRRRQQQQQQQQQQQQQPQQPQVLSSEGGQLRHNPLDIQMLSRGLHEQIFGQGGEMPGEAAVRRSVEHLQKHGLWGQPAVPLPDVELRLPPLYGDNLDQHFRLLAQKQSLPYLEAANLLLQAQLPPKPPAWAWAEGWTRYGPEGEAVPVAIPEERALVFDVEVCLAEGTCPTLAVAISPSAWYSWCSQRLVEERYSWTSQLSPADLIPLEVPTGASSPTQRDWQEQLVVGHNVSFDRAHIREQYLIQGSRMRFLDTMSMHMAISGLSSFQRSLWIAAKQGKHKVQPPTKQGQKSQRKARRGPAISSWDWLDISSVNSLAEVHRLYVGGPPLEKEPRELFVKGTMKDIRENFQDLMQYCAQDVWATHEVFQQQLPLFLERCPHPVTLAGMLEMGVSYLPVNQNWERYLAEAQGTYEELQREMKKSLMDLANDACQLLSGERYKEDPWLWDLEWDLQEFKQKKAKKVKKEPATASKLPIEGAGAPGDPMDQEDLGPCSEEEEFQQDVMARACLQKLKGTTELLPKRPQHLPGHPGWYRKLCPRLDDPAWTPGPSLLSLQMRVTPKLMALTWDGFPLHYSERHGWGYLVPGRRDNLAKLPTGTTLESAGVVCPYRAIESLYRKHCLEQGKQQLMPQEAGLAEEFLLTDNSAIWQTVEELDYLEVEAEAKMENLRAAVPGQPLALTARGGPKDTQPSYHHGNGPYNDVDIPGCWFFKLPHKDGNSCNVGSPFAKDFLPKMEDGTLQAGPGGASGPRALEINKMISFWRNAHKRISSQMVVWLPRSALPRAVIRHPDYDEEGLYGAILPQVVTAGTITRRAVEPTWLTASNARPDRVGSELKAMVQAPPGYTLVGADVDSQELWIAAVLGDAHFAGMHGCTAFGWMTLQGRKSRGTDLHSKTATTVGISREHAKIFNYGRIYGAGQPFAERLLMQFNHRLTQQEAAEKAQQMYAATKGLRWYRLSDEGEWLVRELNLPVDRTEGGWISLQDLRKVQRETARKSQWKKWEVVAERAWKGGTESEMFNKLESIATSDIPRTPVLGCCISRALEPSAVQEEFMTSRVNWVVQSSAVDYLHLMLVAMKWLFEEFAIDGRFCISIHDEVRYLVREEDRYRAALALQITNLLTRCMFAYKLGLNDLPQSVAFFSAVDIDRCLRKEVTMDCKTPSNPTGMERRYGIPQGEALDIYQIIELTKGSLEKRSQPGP
Sequence (Q9UHN1 whole entry partner): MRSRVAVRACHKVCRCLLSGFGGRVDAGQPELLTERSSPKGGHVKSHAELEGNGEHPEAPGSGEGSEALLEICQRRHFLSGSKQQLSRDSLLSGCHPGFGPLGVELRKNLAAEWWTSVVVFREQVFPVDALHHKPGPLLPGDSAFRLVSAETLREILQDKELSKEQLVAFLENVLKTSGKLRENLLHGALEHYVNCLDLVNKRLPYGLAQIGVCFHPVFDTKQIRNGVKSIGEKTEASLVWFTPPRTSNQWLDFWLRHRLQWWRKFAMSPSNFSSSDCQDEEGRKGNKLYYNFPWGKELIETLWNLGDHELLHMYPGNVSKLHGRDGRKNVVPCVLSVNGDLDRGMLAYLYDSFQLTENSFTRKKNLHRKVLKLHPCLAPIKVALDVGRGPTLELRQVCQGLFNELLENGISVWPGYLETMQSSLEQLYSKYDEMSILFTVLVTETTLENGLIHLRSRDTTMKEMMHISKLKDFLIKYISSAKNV
5.15
